target: human GPR4 (Homo sapiens)
Construct: expressed in transfected cells; expression induced by 17β-estradiol
Sequence (P46093 whole entry): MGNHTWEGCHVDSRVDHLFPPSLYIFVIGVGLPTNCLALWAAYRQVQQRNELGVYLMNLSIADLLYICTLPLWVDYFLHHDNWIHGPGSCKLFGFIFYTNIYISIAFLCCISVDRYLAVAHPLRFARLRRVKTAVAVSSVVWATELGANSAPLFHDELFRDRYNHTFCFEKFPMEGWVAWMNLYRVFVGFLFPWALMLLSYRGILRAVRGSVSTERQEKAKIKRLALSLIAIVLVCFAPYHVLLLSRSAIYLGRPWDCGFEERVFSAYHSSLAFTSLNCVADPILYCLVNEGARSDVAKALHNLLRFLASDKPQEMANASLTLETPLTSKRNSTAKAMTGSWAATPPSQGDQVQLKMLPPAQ
test_protocol: GPR4 antagonism, luciferase reporter assay in human GPR4 assay cells
Type: cell-based
condition: 1 μmol/L test compound, 10 nmol/L 17β-estradiol, 6 hours, firefly luciferase reporter; read-out: Inhibition rate (%)
Here, each record is paired with measured inhibition at 1 µM data.
recorded_metric: inhibition at 1 µM (%)

INSERT INTO assay_data (smiles_representation, recorded_metric, result) VALUES
  ('Cc1cc(C)c2nc(C)n(Cc3ccc(NCC4CCN(C5CCOCC5)CC4)cc3)c2n1', 'inhibition at 1 µM', 83),
  ('CCc1nc2c(C)cc(C)nc2n1Cc1ccc(C(=O)c2ccccc2)cc1', 'inhibition at 1 µM', 31),
  ('CCc1nc2c(C)cc(C)nc2n1Cc1ccc(N[C@H]2CC[C@H](C(=O)NCCN3CCCC3)CC2)cc1', 'inhibition at 1 µM', 97),
  ('CCc1nc2c(C)cc(C)nc2n1Cc1ccc(NCC2CCNCC2)cc1', 'inhibition at 1 µM', 97),
  ('CCc1nc2c(C)cc(C)nc2n1Cc1ccc(Nc2ccccc2)cc1', 'inhibition at 1 µM', 45),
  ('CCc1nc2c(C)cc(C)nc2n1Cc1cccc(C(=NO)c2cccc(CN3CCCC3)c2)c1', 'inhibition at 1 µM', 34);
